Test system: P. falciparum 3D7 (CQ-sensitive)
Experiment: pLDH antimalarial assay, P. falciparum 3D7
Assay type: cell-based, Plasmodium falciparum
Conditions: Plasmodium falciparum, 3D7, 48 h, read-out: P. falciparum 3D7 (CQ-sensitive) EC50 (μM) ± SD, pLDH assay, 48 h, three independent experiments
QUANTITY_NAME: EC50 (µM)
Reply with just the number (in µM).

O=C(C=Cc1cccc(Cl)c1)C=Cc1cccc(Cl)c1 [MS40B]	13.7

In one line, give reported EC50 of the entry COc1cc(C=C2CCC(=Cc3cc(OC)c(OC)c(OC)c3)C2=O)cc(OC)c1OC [MS87] . 10.8

----------
System: P. falciparum 3D7 (CQ-sensitive)
Test: pLDH antimalarial assay, P. falciparum 3D7
Assay type: cell-based, Plasmodium falciparum
Settings: Plasmodium falciparum, 3D7, 48 h, read-out: P. falciparum 3D7 (CQ-sensitive) EC50 (μM) ± SD, pLDH assay, 48 h, three independent experiments
QUANTITY_NAME: EC50

Solved cases (2 shown):
COc1cc(C=C2CCCC(=Cc3cc(OC)c(OC)c(OC)c3)C2=O)cc(OC)c1OC [MS72C]	> 500 µM
O=C1C(=Cc2ccccc2F)CCC1=Cc1ccccc1F	> 500 µM

In one line, give reported EC50 of the entry COc1ccc(C=C2CCCC(=Cc3ccc(OC)c(OC)c3OC)C2=O)c(OC)c1OC [MS72A] . > 500 µM
